# Subject of test: T1, recombinant human CD73 (SEQ ID NO:70) (human, UniProt P21589 27-549)
# T1 construct: Soluble recombinant protein in normal SPR running buffer (open conformation), the soluble enzyme assay and HDX-MS; SPR stock bought from BPS Bioscience; also called rhuCD73; CD73 in the open conformation
# T1 sequence: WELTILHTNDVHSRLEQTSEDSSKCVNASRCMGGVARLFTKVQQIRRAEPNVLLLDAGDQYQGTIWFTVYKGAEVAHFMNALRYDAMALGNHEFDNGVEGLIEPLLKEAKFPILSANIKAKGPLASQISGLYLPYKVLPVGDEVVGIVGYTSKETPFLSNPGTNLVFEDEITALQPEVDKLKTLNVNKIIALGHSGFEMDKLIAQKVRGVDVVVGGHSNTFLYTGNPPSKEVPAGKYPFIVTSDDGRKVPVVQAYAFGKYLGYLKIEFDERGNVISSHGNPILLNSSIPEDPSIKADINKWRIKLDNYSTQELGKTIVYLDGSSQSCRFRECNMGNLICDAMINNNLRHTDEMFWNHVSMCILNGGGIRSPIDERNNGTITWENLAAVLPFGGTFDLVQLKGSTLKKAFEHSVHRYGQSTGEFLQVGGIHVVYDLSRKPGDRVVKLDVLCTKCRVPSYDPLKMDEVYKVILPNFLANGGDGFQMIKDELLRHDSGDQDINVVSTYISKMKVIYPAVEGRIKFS
# Assay name: SPR (Biacore 8K), antibody captured on anti-human Fc, CD73 as analyte, open conformation
Checkbox rule: kon lower than 800000 M⁻¹ s⁻¹ = Met; kon not lower than 800000 M⁻¹ s⁻¹ = Not met.

{"Binder": "CL25_hu_9-6 (antibody, V domains shown, Humanized CL25 antibody) VH: QVQLVQSGAEVKKPGSSVKVSCKASGYTFTSYGLSWVRQAPGQGLEWMGEIYPGSGNTYYNEKFKGRVTITADESTSTAYMELSSLRSEDTAVYYCARYDYLGSSYGFDYWGAGTTVTVSS VL: AIRMTQSPSSFSASTGDRVTITCKASQDVSTAVAWYQQKPGKAPKLLIYSASYRYSGVPSRFSGSGSGTDFTLTISCLQSEDFATYYCQQHYNTPYTFGGGTKLEIK", "Label value": "Met"}
{"Binder": "CL25_hu_8-4 (antibody, V domains shown, Humanized CL25 antibody; captured by anti-human Fc in SPR) VH: QVQLVQSGAEVKKPGASVKVSCKASGYTFTSYGLSWVRQATGQGLEWMGEIYPGSGNTYYNEKFKGRVTMTRNTSISTAYMELSSLRSEDTAVYYCARYDYLGSSYGFDYWGAGTTVTVSS VL: DIQMTQSPSSLSASVGDRVTITCKASQDVSTAVAWYQQKPGKAPKLLLYSASYRYSGVPSRFSGSGSGTDYTLTISSLQPEDFATYYCQQHYNTPYTFGGGTKLEIK", "Label value": "Met"}
{"Binder": "CL25_hu_8-5 (antibody, V domains shown, Humanized CL25 antibody) VH: QVQLVQSGAEVKKPGASVKVSCKASGYTFTSYGLSWVRQATGQGLEWMGEIYPGSGNTYYNEKFKGRVTMTRNTSISTAYMELSSLRSEDTAVYYCARYDYLGSSYGFDYWGAGTTVTVSS VL: DIVMTQSPDSLAVSLGERATINCKASQDVSTAVAWYQQKPGQPPKLLIYSASYRYSGVPDRFSGSGSGTDFTLTISSLQAEDVAVYYCQQHYNTPYTFGGGTKLEIK", "Label value": "Not met"}
{"Binder": "CL25_hu_9-5 (antibody, V domains shown, Humanized CL25 antibody) VH: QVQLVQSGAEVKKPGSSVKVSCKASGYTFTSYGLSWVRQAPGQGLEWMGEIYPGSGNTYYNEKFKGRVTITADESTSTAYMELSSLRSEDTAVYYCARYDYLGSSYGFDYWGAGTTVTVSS VL: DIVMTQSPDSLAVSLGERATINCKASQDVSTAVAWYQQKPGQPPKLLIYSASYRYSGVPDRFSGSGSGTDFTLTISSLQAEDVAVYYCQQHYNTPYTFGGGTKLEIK", "Label value": "Met"}

Input: Field: below-cutoff. Rule: recorded kon strictly less than 800000 M⁻¹ s⁻¹. Subject: CL25_hu_10-4 (antibody, V domains shown, Humanized CL25 antibody) VH: EVQLVQSGAEVKKPGESLKISCKGSGYTFTSYGLSWVRQMPGKGLEWMGEIYPGSGNTYYNEKFKGQVTISADKSISTAYLQWSSLKASDTAMYYCARYDYLGSSYGFDYWGAGTTVTVSS VL: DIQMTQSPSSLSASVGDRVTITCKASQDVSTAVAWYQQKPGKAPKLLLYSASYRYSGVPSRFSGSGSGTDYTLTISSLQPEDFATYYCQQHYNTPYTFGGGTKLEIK
Output: Not met
